Recorded values, source PubChem BioAssay AID1159580.

assay: chemical genetic growth profiling, strain panel (AID 1159580);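 note: tested at 20 µM; growth read once vehicle control cultures reached saturation at 30 °C; 1 = growth at the plate median or of vehicle wells; lower values mean less growth of the strain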; conditions: S. cerevisiae deletion strains, growth OD, locus YKR026C, strain gcn3, hits give low values
Hit rate of the full screen: of about 5,500 compounds, about 2,000 (36%) were called active. Roughly 18% stayed inconclusive and do not appear here. The list shows a part of the results.
Entries and their measured normalized growth follow.
Reply with just the number.

# count of solved cases: 2
>  <molecule>
O=C(O)CCCc1ccccc1

>  <normalized growth>
0.98

$$$$
>  <molecule>
CN1C2C[C@H](OC(=O)[C@H](CO)c3ccccc3)C[C@H]1[C@@H](O)C2

>  <normalized growth>
1.01

$$$$

Q. I have this molecule here, CCC(C)C(=O)O[C@@H]1C[C@@]2(C)[C@H](c3ccoc3)OC(=O)CC23OC2(C)O[C@]14[C@]1(C)[C@@H](CC(=O)OC)C5(C)CC1(O)[C@](O)(C5OC(=O)C1(C)OC1C)[C@@H](OC(C)=O)[C@]34O2 (some centres undefined) , and I need its recorded normalized growth.
A. 1

Q. Let us now turn to O=S(=O)(O)CCS
A. 0.996

Q. Let us now turn to N=c1ccn2c(n1)OC1C(O)C(CO)OC12 (centres undefined)
A. 1.02

Q. Let us now turn to COC(=O)C[C@H]1C2(C)CC34OC5(C)O[C@@]6([C@H](OC(C)=O)C(OC(C)=O)[C@]7(C)C(/C(=C(/O)C(C)C)C(=O)O[C@H]7c7ccoc7)[C@@]6(O5)[C@H](OC(C)=O)[C@@]3(O)C2OC(=O)C(C)C)[C@]14C (some centres undefined)
A. 0.995

Q. Let us now turn to NS(=O)(=O)c1cc2c(cc1Cl)NC=NS2(=O)=O
A. 0.98

Q. Let us now turn to OCCc1ccccc1
A. 0.983

Q. Let us now turn to CN1C2CCC1CC(OC(c1ccccc1)c1ccccc1N)C2 (centres undefined)
A. 0.99

====

test: chemical genetic growth profiling, strain panel (AID 1159580);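 note: tested at 20 µM; growth read once vehicle control cultures reached saturation at 30 °C; 1 = growth at the plate median or of vehicle wells; lower values mean less growth of the strain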; settings: S. cerevisiae deletion strains, growth OD, locus YHR079C, strain IRE1, hits give low values
Out of some 5,500 compounds screened, about 2,000 (36%) were called active. Roughly 18% stayed inconclusive and do not appear here. Some of the results follow.
Entries and their measured normalized growth follow.
Reply with just the number.

>  <compound>
Cc1ccccc1C(OCCN(C)C)c1ccccc1 (stereo unspecified)

>  <recorded-metric>
normalized growth

>  <observed-value>
0.973

$$$$
>  <compound>
Cc1nn(C)c(C(=O)Sc2ccc(OC(F)(F)F)cc2)c1[N+](=O)[O-]

>  <recorded-metric>
normalized growth

>  <observed-value>
0.977

$$$$
>  <compound>
C=CCc1ccc(O)c(OC)c1

>  <recorded-metric>
normalized growth

>  <observed-value>
0.975

$$$$
>  <compound>
C=CCc1ccc(OC)cc1

>  <recorded-metric>
normalized growth

>  <observed-value>
0.989

$$$$

Q. I have this compound here, O=S(=O)(O)CCS , and I need its recorded normalized growth.
A. 0.991

Q. Let us now turn to CC[C@@]1(O)C[C@H](O)c2c(cc3c(c2O)C(=O)c2c(O)ccc(O)c2C3=O)[C@H]1C(=O)OC
A. 0.984

====

assay: chemical genetic growth profiling, strain panel (AID 1159580);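 note: tested at 20 µM; growth read once vehicle control cultures reached saturation at 30 °C; 1 = growth at the plate median or of vehicle wells; lower values mean less growth of the strain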; details: S. cerevisiae deletion strains, growth OD, locus YNL153C, strain GIM3
About 2,000 (36%) of roughly 5,500 compounds were called active. Roughly 18% stayed inconclusive and do not appear here. Cut-off read from the data, not from the text of the source: active = normalized growth mostly below about 0.91 (no sharp cut-off); inconclusive = no clear call, values can overlap the other calls; inactive = mostly above about 0.92. This is one part of the list.
# output must be one of class 1 for active, class 0 for inactive

Reference set (3 entries):
>  <compound>
Cc1ccccc1C(OCCN(C)C)c1ccccc1 (centres undefined)

>  <label-class>
class 0

$$$$
>  <compound>
Fc1ccc(C(OCCN2CCN(CCCc3ccccc3)CC2)c2ccc(F)cc2)cc1

>  <label-class>
class 1

$$$$
>  <compound>
CC[C@H]1OC(=O)[C@H](C)[C@@H](O[C@H]2C[C@@](C)(OC)[C@@H](O)[C@H](C)O2)[C@H](C)[C@@H](O[C@@H]2O[C@H](C)C[C@H](N(C)C)[C@H]2O)[C@](C)(OC)C[C@@H](C)C(=O)[C@H](C)[C@@H](O)[C@]1(C)O

>  <label-class>
class 0

$$$$

Q. I'd appreciate the recorded outcome for c1ccc2c(c1)sc1ccccc12 from this test.
A. class 1
